# target_desc: T1, cynomolgus monkey CD8A on primary cynomolgus monkey CD8+ T cells (cynomolgus monkey, UniProt P01732 23-235 (human entry))
# T1 construct: also called Cyno CD8alpha
# measurement_protocol: flow cytometry, cyno CD8+ T cells, 0.2 uM FN3
property: Cyno T-cell Binding 0.2 uM (MFI)
Answer with a number only, understood to be in MFI.

P282DR9P1359_F11 (designed binder, FN3 domain) LPAPKNLVVSRVTEDSARLSWTAPDAAFDSFDIFYPELPIHGEAIVLTVPGSERSYDLTGLKPGTEYWVNITGVKGGDFSWPLSAIFTT
16100
P282FR9P1361_D3 (designed binder, FN3 domain) LPAPKNLVVSRVTEDSARLSWTAPDAAFDSFDIWYAEYGYPGEAIVLTVPGSERSYDLTGLNPGTEYDVAISGVKGGPRSYPLSAIFTT
764
P282ER9P1360_A9 (designed binder, FN3 domain) LPAPKNLVVSRVTEDSARLSWTAPDAAFDSFGILYYEPVDSGEAITLPIPGSERSYDLTGLKPGTEYWVVITGVKGGAPSTPLGAIFTT
8730
P282FR9P1361_C7 (designed binder, FN3 domain) LPAPKNLVVSRVTEDSARLSWTAPDAAFDSFGIWYHEYGGDGEAIVLTVPGSERSYDLTGLKPGTEYDVAIWGVKGGDVSYPLSAIFTT
896

// next entry
query: I'd like to know its Cyno T-cell Binding 0.2 uM (MFI). The binder in question is P282ER9P1360_G10 (designed binder, FN3 domain) LPAPKNLVVSRVTEDSARLSWTAPDAAFDSFAIWYVEQHPFGEAIPLFVPGSERSYDLTGLKPGTEYTVGIRGVKGGNFSTPLIAHFTT
result: 22600

Values were extracted from patent US20210032312A1.
